# test_target: Escherichia coli GS (EcGS) (Escherichia coli)
# Sequence (P0A6U8 whole entry): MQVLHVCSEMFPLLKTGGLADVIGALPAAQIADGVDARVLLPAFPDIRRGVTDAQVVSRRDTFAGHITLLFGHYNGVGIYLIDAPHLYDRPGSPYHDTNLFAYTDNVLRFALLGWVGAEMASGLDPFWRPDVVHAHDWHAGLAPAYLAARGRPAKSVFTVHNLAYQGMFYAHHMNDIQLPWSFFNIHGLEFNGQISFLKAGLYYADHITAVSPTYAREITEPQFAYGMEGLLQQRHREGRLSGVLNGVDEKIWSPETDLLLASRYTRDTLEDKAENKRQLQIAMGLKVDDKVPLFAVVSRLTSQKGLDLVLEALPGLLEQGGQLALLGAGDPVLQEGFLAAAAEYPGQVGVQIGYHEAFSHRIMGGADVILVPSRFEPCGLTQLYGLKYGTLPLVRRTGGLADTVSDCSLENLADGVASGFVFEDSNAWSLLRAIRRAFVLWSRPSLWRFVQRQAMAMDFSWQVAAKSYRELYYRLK
# test_protocol: EcGS activity, glycogen synthesis direction, absence of ADP
# test_conditions: read-out: Ki EcGS; substrate ADPG
assay_readout: Ki (µM)
Numbers only here, please. The scale is µM.

Request: Item under review: Nc1ncnc2c1ncn2[C@@H]1O[C@H](COP(=O)(O)OP(=O)(O)O)[C@@H](O)[C@H]1O . Reported Ki?
Result: 87

###

# test_target: Escherichia coli GS (EcGS) (Escherichia coli)
# test_protocol: EcGS activity, glycogen synthesis direction, absence of ADP
assay_readout: IC50 (µM)
Give the quantity in µM, number only.

Request: Return reported IC50; argument: OC[C@H]1NC[C@@H](O)[C@@H]1O [DAB, 1,4-dideoxy-1,4-imino-D-arabinitol]
Result: 1320
